# credit: PubChem BioAssay AID1159580

- Assay Explanation: chemical genetic growth profiling, strain panel (AID 1159580);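 also: tested at 20 µM; growth read once vehicle control cultures reached saturation at 30 °C; 1 = growth at the plate median or of vehicle wells; lower values mean less growth of the strain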
- Test Conditions: S. cerevisiae deletion strains, growth OD, strain wtn01, active compounds read low
Screen size: about 5,500 compounds; about 2,000 (36%) were called active. Roughly 18% stayed inconclusive and do not appear here. The list shows a part of the results.
Measured Parameter: normalized growth
Just the number.

>>> df
                                   compound  value_measured
0  CN1C2CCC1CC(OC(c1ccccc1)c1ccccc1N)C2 (stereo not drawn)            1.02
1  CNCCC(Oc1ccc(C(F)(F)F)cc1)c1ccccc1 (stereo not drawn)            1.01

From here, focus on the item given below.
Looking up CN1C2CCC1CC(OC(c1ccccc1)c1ccccc1)C2 (stereo not drawn) , I see its normalized growth listed as 0.977
